Assay: soluble fraction after stress (log2 fold change); higher = more stays soluble; pooled small domains, quantitative proteomics
Details: stress: 50 degC
Kindly supply the reported soluble fraction (log2) values for the records listed here.
# output: bare number, no unit

(Q) Entry under review: HMVTLYDGFLSELRKRIPRGAELTNTLVDMLYIEREAVYRRLRGEVPFTFIEVMTVSKELGISLDNLAQA . Reported soluble fraction (log2)?
(A) -1.23

(Q) Now the sequence HMAAAQILRAAVLRVPAEETMRFVTETPELRRYLGASLGPTAAIVRPGQEQNLAAALQSHGILVEFDE
(A) 0.0258

(Q) Follow-up item: HMPARTANEEAIRKYLLNHDSITRKETQALLKTGQSAAGRILKEMVENGWLARIGNGRSTGYELR
(A) -0.034

(Q) Then HMSQDTLIGRVGVIVIGQARTGSPAQVRVKDGFGQTHYVMAEPDSEGVLKQGEAVLLVSLEGNTFKAILNP ?
(A) -0.286

(Q) Then what about the sequence HMLGDAVLRQVLETIPEDPAVDYLELRRNTGMTEADLDRVLADLENLGVINKKRTVEQVLYWRT ?
(A) -0.294

(Q) Param item: HMDRFVLQLSKRYYDSSIEGVRKALAAFPVKTELLDQDRGGRPFYHENGKENEPVFRIMFHPEEGM
(A) -0.542

(Q) And for HMIFSIIPGQIRLTKMEIADGYLVLYGFTPSKEIYNLHLNPALKSIFTSSETSFIPVSGGLKFMSTNKL ?
(A) -1.78

(Q) Same for HMEREKTYLMPDLIGRKAERVVPRLQASGFKVEDIRHVYYPGLEKGVIVRQSPPGGYPIQKRNLINLEVS
(A) -0.333

(Q) Consider next the sequence HMGTHSAEQVRAAIRAIVAAEDAANPLSDARITELLAMRGIAAARRTVMKYREQLGIPSSAKRRR in the same way.
(A) -0.343

(Q) Cool, now HMRIDSFEDARRRFEYDYLTRLLKLTQGSVTQAAKLAKRNRTEFYKLLQRHGIEAAHFKPTS
(A) -0.581

(Q) Now this one: HMEELELTIDGEMVGRIDKQLGHHFDQFSRSQIQHWIEDGHVLVNGKQVKPKYKLLVGDHVQIIPEEPQK
(A) 0.25

(Q) Note, next up: HMRERLPFGFAQSKKVVLLSTESDTPKVLSVNWPSLDLYAELKRVIGRAFLLEIVSEEEFQAQVSDAYQRD
(A) -2.24

(Q) Now try HMDDVYMVPVKDIAINDLKQEFEKLGIPNIQNTIPDKDLNFFIVRKDDLALVNYAIEKTMER .
(A) -0.0369

(Q) Same thing, different sequence: HMHPQISVEGVLPLKEAVEFVEREIISHAYSRYRATREVARHLGIDPSTVLRKAAKYGITVEPGKN
(A) -0.658

(Q) Same lookup for HMKHTVSVDRLQPGVFVSLGGLSWLDHPFLLNRFRLTDHDQIKVLRSLGVKEIEWDPTRSTAQPLPE , please.
(A) -0.437

(Q) Follow-up entry: HMDHFLRRFQVEGLNLEKLLRLAAEREMDLLQVRRSGRRMTGLVAEKRLPELEELAAQGGWALRLGEY
(A) -0.268

(Q) Again, but for HMVKFGERVKQLRLSAGMTQEQLAERIWVTKAAISNYELSERNPSPETIIKIAGVFGVTTDYLLGLED
(A) -0.5

(Q) Queued: HMTMKVTADILNMRSEASTNSDIVTKLKKDDELKVIEETKDDDGVTWVKVDFNGQVGFVSKEFLG
(A) 0.284

(Q) Also need HMKQPNFTVIETKILELLFQKDLSSREMQEILKISKDNLIFALQNLLEQEKIVLQTSNTYTVN , thanks.
(A) -1.15

(Q) Now this one: HMDVEMLIDKYQLNDSEAEVLRFMKKNRQSLKTIGIRDVAKATYVSTATIINMAKKIGYSGYSELVFALGN
(A) -0.0472

(Q) Now consider HMNNQVTFSKFLNEVEDGRVVEVNIQGNNITGVLSDGSKFKTFSPNYPNLVEKLSEKGVSINASPL .
(A) 0.1

(Q) Next record, please: HMEQPLSLKLANNAFSRFWGNANPAEKDTQPNNSDIAKWVIEQSGGKITQTMADKIAQIIRPEWAA
(A) 0.184

(Q) Same read-out for HMQVVDWSQVDKEDYLLATKRRAVSTGELKFLLLNNLTYDLTQTRFFKGMDASYYYEGYNLYQTGE ?
(A) 0.122

(Q) Follow-up entry: HMNLLQAHLLRLESAALLAEVREVDRQLSRWLHPLTPQSDVAIIDERNWEAAVARLTELGVHIEEGRW
(A) -2.92

(Q) Try the sequence HMTHFRTDERRREILSTIEADGRVSVSEIASRFDVSPVTIRSDLNYLAIQGKLKRVRGGAVLLDH
(A) -0.76

(Q) Also HMDNIPAHIKAKIINYVNRNYPGAIIKDIERKSNGRYEAEIVYNNREYDLLFDAQGNFISASLDDK ?
(A) 0.123

(Q) // same read-out, input: HMEELIIQEELANKRLDIAISLLFPELTRAHAQKLIKEGSVLVDGKPRKASYPLTAGKRLSVTLPEPE
(A) 0.05

(Q) # repeat for HMTKRKNTEFRQQQIIEAAAKLIFKYGSEHLTVKRIAAQVGISEAAIYRHFTSKKSILSFLLSHIEE
(A) -0.423

(Q) Then this sequence: HMAAEPDQQLIKPASDPVLRTMKIEELMKMSEQVKIQMSKAAKNFDYLEAARLRDEHFALENLIKLRS
(A) 0.108

(Q) Try HMASQEESVATYIQDYYRNPKTGESMVSDDMVEEFYKTHPEWEDQADGSKEGMEAVLDNFNEFFEINYG next.
(A) 0.0827

(Q) Do the same for HMDDPITVAYRETEDAIAQVQREGFPVEMPPANSYIRRIQHELAGRFNLDSESYGDEPERRVRIRPQQ please
(A) -0.00875

(Q) Same thing, different sequence: HMDINIETLNYYVGKAKIPLSELRISVKNIDLFLSGEKQPTFNQLSSIAKKLNIPTGLLLLDESIEV
(A) -2.74
